In this section, each of the compounds is paired with its reported inhibition.
Assay: yeast transport mutant growth inhibition pilot in 384-well plates, post-Golgi transport modulator project (AID 636); further: test concentration not given here
Conditions: absorbance 615 nm, about 18 h, stronger effect = higher value
API: value field is a number in %; no unit string.

* COc1ccc(OCCCC(=O)Nc2nncs2)cc1 | -5.27

Data request: State its inhibition: COc1cc2c(cc1OC)C(C)N(C(=O)Cn1ncc3c1-c1ccccc1OC3)CC2 (configuration not stated)
Data returned: -2.31

Data request: Determine from records and report inhibition for O=C(c1ccc(CNc2c(N3CCCC3)c(=O)c2=O)cc1)N1CCc2ccccc2C1
Data returned: 3.59

Data request: Provide only the value of recorded inhibition for CCOCCOc1nc2c(c(=O)n(C)c(=O)n2C)n1Cc1ccc(C)cc1
Data returned: 0.27

Data request: Report measured inhibition; entry is COc1ccc(-n2c(Cc3cccn3C)nnc2SCC(=O)Nc2cccc(Cl)c2)cc1
Data returned: -2.8

Data request: Please indicate inhibition recorded for COc1ccc(C2CC(c3ccco3)n3ncnc3N2)cc1 (configuration not stated)
Data returned: -3.07

Data request: Respond only with inhibition recorded for Cc1nc2ccccc2c2oc(C(=O)NCCN3CCCCC3C)cc12 (configuration not stated)
Data returned: -3.46

Data request: Tell us which inhibition value is on record for COC(=O)c1ccsc1NC(=O)CN1C(=O)CCC1=O
Data returned: -1.33

Data request: Answer with the recorded inhibition of Cc1cccc(Cn2c(SCC(=O)Nc3ccccc3)nc3c2c(=O)[nH]c(=O)n3C)c1 only.
Data returned: -1.33

Data request: Consider the compound CCC(Oc1ccccc1)C(=O)Nc1ccccc1OC (configuration not stated) and give its recorded inhibition.
Data returned: -6.35

Data request: Quote inhibition reported for CC(=O)OC1c2ccccc2C(=O)N1Cc1ccccc1Cl (configuration not stated) please.
Data returned: -5.87

Data request: Using known records, supply inhibition for COCc1cc(C)nc(Nc2ccc(C)cc2C)c1C#N
Data returned: -2.43

Data request: Please list inhibition recorded for the compound O=c1c2ccccc2nc(SCc2nc(-c3ccccc3)no2)n1-c1ccc(F)cc1
Data returned: -5.73

Data request: Read the entry CCOC(=O)N1CCC(NC(=O)c2cc3c(=O)n(C)c4ccccc4c3n2C)CC1 and write its reported inhibition.
Data returned: -2.67

Data request: For the compound COc1cccc(C2CC(c3ccc(F)cc3)Nc3nc(N)nn32)c1 (configuration not stated) , report inhibition.
Data returned: -2.67

Data request: Output measured inhibition for this item: CN1CCC(NC(=O)c2cccs2)CC1
Data returned: -4.13

Data request: Answer with reported inhibition of O=P(O)(CCc1ccccc1)CN1CCCCC1
Data returned: 7.97

Data request: Give the value of inhibition reported for the following: Cc1ccc2cc(CCNC(=O)C(C)C)c(=O)[nH]c2c1C
Data returned: -4.8

Data request: Please supply the value of reported inhibition for the item CCOc1cc(C2C3=C(CCCC3=O)N(C)C3=C2C(=O)CCC3)cc(Cl)c1O
Data returned: -6.35

Ref: PubChem BioAssay
